- Assay protocol: self-splicing fitness, log relative to wild type (ln ratio); higher = more splicing; Tetrahymena group I intron in knt gene, E. coli kanamycin selection, DiMSum; sequences stand for … in CUCUCU…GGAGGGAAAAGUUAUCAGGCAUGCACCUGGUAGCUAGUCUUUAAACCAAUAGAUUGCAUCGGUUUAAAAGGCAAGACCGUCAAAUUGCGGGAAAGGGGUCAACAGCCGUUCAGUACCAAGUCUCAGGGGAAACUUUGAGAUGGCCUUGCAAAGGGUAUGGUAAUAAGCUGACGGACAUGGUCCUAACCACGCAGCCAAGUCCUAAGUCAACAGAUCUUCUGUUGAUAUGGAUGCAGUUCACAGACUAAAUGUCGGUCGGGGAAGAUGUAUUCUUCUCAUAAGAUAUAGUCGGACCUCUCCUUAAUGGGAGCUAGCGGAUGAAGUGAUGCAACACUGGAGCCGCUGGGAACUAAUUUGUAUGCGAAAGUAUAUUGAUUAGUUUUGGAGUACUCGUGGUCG;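 note: selection with 25 µg/mL kanamycin versus none on LB agar overnight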
- Condition details: 37 °C
Threshold check on self-splicing fitness (ln): at or above -2 gives 1 (yes), strictly below gives 0 (no).

Solved entries (count: 5):
GUCAAGCAAUAUUACGACUG = 0 (no)
ACGCAGCAAUAUUACGGUAA = 1 (yes)
AGCGAGCAAUAUUACGAAGU = 1 (yes)
GUCUAGCAAUAUUACGCACG = 1 (yes)
GCUUAGCAAUAUUACGCAGG = 0 (no)

Q. Kindly determine if self-splicing fitness (ln) recorded for CCGAAGCAAUAUUACGUCUG is above or exactly -2.
A. 1 (yes)

Q. Dear colleague, could you confirm whether CUCGAGCAAUAUUACGUUUA has self-splicing fitness (ln) at or above -2?
A. 0 (no)

Q. Please tell me: is the sequence GGGCAGCAAUAUUACGUGGA at or over -2 in terms of self-splicing fitness (ln)?
A. 1 (yes)

Q. Please check the record UUGAAGCAAUAUUACGCCCU and state if its self-splicing fitness (ln) is at or above -2.
A. 1 (yes)

Q. self-splicing fitness (ln) >= -2 for GAUUAGCAAUAUUACGGUCG ?
A. 1 (yes)

Q. // inclusive: self-splicing fitness (ln) at least -2? input: GUCUAGCAAUAUUACGGCAA
A. 1 (yes)

Q. Entry GACCAGCAAUAUUACGGUAG : is its self-splicing fitness (ln) no less than -2?
A. 1 (yes)

Q. hey, is self-splicing fitness (ln) for this one >= -2? GGGGAGCAAUAUUACGUUCU
A. 1 (yes)

Q. Does the reported self-splicing fitness (ln) for CAGAAGCAAUAUUACGGAGA fall at or above the -2 mark?
A. 0 (no)
